test system: Staphylococcus aureus; assay: Antimicrobial activity against vancomycin-resistant Staphylococcus aureus NARSA VRS1 after 20 hrs by microdilution assay; type: functional; details: NARSA VRS1, 20 h
Non-standard residues stand in square brackets, D forms with d. Residues, ends and D or L forms follow the SMILES beside them. Groups on a side chain read outwards from the residue. ξ: configuration not given here. ξGly(decyl) = CCCCCCCCCCC(N)C(=O)O
measuredParameter: MIC (µM)

>>> endpointresult("CCCCCCCCCCC(NC(=O)C(CCCCCCCCCC)NC(=O)C(CCCCNC(=O)C(N)CCCCN)NC(=O)C(N)CCCCN)C(N)=O (stereo not given) (H-KK(Lys)[ξGly(decyl)][ξGly(decyl)]-NH2; configuration not given here)")
0.1
>>> endpointresult("CCCCCCCCCCC(NC(=O)C(CCCCCCCCCC)NC(=O)C(CCCCNC(=O)C(CCCCN)NC(C)=O)NC(=O)C(CCCCN)NC(C)=O)C(N)=O (stereo not given) (Ac-KK([Lys-Ac])[ξGly(decyl)][ξGly(decyl)]-NH2; configuration not given here)")
1.9
